- ASSAY PROTOCOL: NCI Yeast Anticancer Drug Screen. Data for the rad50EPP+ strain (AID 151)
- PARTICULARS: S. cerevisiae rad50 mutant strain, at 1.2 µM
This is part of a sample that, as a whole, favours compounds with a hit. Of some 79,000 tested, about 15% had one in any assay. Activity calls are given as the source filed them. Cut-off read from the data, not from the text of the source: active = growth inhibition above about 70%; inactive = the rest.
Form entry, call: pick from active, inactive

Q) What is the recorded call for this compound in the test? CC1(C)C(=O)OC(n2cc(F)c(=O)[nH]c2=O)C1=O (stereo unspecified)
A) inactive

Q) What outcome does the record of this test show for Cc1ccc(S(=O)(=O)NC(=O)NC2=NC(C)(C)N(c3ccc(Cl)c(Cl)c3)C(N)=N2)cc1 ?
A) inactive

Q) Any idea what this test logged for COc1cc2c(cc1[N+](=O)[O-])C(=O)C(Br)(Br)CCC2 ?
A) inactive

Q) Record request — test call for COCCOC(=O)CCn1cc(F)c(=O)[nH]c1=O
A) inactive

Q) Hi, sorry to bother you, what did the test record for NNC(=O)CCc1ccc2ccc3ccccc3c2c1 ?
A) inactive

Q) Which outcome was entered for the compound CC(=O)Nc1ccc(SC(C)=O)cc1 in this test?
A) inactive

Q) Which result was noted for this compound in the test: N#Cc1ccc(C2NN=CC23C(=O)c2ccccc2OC3c2ccccc2)cc1 (stereo unspecified)
A) inactive

Q) // param item: CC(C)c1cc(C(C)C)c(O)c(C([O-])[O-])c1.CC(C)c1cc(C(C)C)c(O)c(C([O-])[O-])c1.CC(C)c1cc(C(C)C)c(O)c(C([OH2+])[OH2+])c1.CC(C)c1cc(C(C)C)c(O)c(C([OH2+])[OH2+])c1.[Cu+2].[Cu+2].[OH3+].[OH3+] ; yields the recorded call
A) inactive

Q) Returns: the outcome recorded for COc1cc2c3c(cccc3c1)C(=O)N(CCN(C)C)C2=O in this assay.
A) inactive

Q) How was COc1ccc2nc3c([N+](=O)[O-])ccc(NCCN(C)C)c3c(NCCN(C)C)c2c1 classified in this test?
A) inactive

Q) What outcome does the record of this test show for O=[N+]([O-])c1ccc2c(c1)C(N1CCN(CCO)CC1)Cc1ccc(F)cc1S2 (stereo unspecified) ?
A) inactive

Q) Entry C/C(=N/NC(=S)N1CCCCCC1)c1cccc(/C(C)=N\NC(=S)N2CCCCCC2)n1 : call = ?
A) inactive

Q) Which outcome did this test record for the compound O=C(O)c1ccccc1-c1ccccc1C(=O)Nc1ccc2c(c1)Cc1ccccc1-2 ?
A) inactive

Q) Tell me the assay call for O=C(O)CNc1ccc(Cl)c(Cl)c1 please.
A) inactive

Q) Give the logged outcome of this assay for the following compound: COc1cc(C2C3=C(COC3=O)Oc3cc4c(cc32)OCO4)ccc1O (stereo unspecified)
A) inactive

Q) So what was the verdict on C[CH2][Sn]([CH2]C)([O]C(=O)C(OC(C)=O)c1ccccc1)[O]C(=O)C(OC(C)=O)c1ccccc1 (stereo unspecified) in this test?
A) inactive

Q) Dear colleague, could you share the recorded outcome for Cc1nc(-c2ccccc2)c(-c2ccccc2)s1 when you have a moment?
A) inactive

Q) Could you check what this test reported for Cc1cc(I)ccc1N ?
A) inactive

Q) Outcome? N#CN1C2CCC1CC(=O)C2
A) inactive

Q) Any idea what this test logged for O=C(O)C1CCCCC1c1c2ccc(=O)c(O)c-2oc2c(O)c(O)ccc12 (stereo unspecified) ?
A) inactive

Q) Entry O=[N+]([O-])c1cccc([N+](=O)[O-])c1S(=O)(=O)c1ccccc1 : call = ?
A) active
